What growth AUC was measured for each of the following?
System: Escherichia coli ED1a
Experiment: growth AUC relative to DMSO control (median of replicates) (fraction); higher = more growth (less inhibition), active = hit call of the paper
Details: 20 µM; 24 h
Give bare numbers.

These solved cases illustrate the format of a correct answer.
| compound | growth AUC |
| --- | --- |
| CCSC(=O)N(CC)C1CCCCC1 | 0.987 |
| CCOP(=O)(OCC)Oc1ccc([N+](=O)[O-])cc1 | 0.988 |
| O=[N+]([O-])c1ccc(O)c([N+](=O)[O-])c1 | 0.998 |
| ClC1=C(Cl)C2(Cl)[C@H]3[C@H]4O[C@H]4[C@H](Cl)[C@H]3C1(Cl)C2(Cl)Cl (single isomer, unassigned; isomer a) | 0.982 |
| CC(C)(O)C(Cl)(Cl)Cl.CC(C)(O)C(Cl)(Cl)Cl.O | 1.01 |

Quick one: give me growth AUC for each item below, same order please.
1. CCS(=O)Cc1ccccc1OC(=O)NC (centres undefined)
2. O=[N+]([O-])NC1=NCOCN1Cc1cnc(Cl)s1
3. Oc1cc(Cl)cc(Cl)c1
4. CCCN(CCC)c1c([N+](=O)[O-])cc(C(C)C)cc1[N+](=O)[O-]

*A*
1: 0.977; 2: 0.992; 3: 1; 4: 1.02

Quick one: give me growth AUC for each item below, same order please.
1. CCCCOC(=O)[C@@H](C)Oc1ccc(Oc2ccc(C#N)cc2F)cc1
2. COP(=O)(OC)OC=C(Cl)Cl
3. CC1COC(Cn2cncn2)(c2ccc(Oc3ccc(Cl)cc3)cc2Cl)O1 (centres undefined)
4. O=S(=O)(Oc1ccc(Cl)cc1)c1ccc(Cl)cc1

*A*
1
1.01
0.979
0.971

Quick one: give me growth AUC for each item below, same order please.
1. O=[N+]([O-])c1ccc(Oc2ccc(Cl)cc2Cl)cc1
2. Cc1ccc(N=CN(C)C=Nc2ccc(C)cc2C)c(C)c1
3. CNC(=O)Oc1cccc(N=CN(C)C)c1.Cl
4. Cc1nc(N(C)C=O)nc(OC(=O)N(C)C)c1C
5. CNC(=O)c1cc(C#N)cc(C)c1NC(=O)c1cc(Br)nn1-c1ncccc1Cl
6. [Cl][Sn]([c]1ccccc1)([c]1ccccc1)[c]1ccccc1

*A*
0.99
1.01
1
0.975
1.01
0.981
